Target: PRMT5-MTA (Homo sapiens)
Sequence (O14744 whole entry): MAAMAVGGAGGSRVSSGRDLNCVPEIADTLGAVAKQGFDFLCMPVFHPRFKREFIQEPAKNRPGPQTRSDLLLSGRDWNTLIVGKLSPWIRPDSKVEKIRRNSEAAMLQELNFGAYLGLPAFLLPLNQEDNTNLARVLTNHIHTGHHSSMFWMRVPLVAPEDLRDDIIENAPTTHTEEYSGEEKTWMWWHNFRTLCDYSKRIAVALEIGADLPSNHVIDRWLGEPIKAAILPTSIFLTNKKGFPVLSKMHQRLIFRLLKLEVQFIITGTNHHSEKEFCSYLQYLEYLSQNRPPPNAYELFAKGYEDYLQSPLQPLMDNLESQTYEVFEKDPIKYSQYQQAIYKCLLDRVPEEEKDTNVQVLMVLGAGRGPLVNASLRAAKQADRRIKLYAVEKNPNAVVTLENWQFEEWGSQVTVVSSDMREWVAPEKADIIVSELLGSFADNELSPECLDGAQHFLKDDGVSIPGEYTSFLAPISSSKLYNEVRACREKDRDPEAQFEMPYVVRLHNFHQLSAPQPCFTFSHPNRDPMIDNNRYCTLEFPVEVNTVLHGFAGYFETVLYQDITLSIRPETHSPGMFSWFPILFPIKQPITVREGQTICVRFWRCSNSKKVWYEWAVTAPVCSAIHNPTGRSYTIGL
Sequence (Q9BQA1 whole entry partner): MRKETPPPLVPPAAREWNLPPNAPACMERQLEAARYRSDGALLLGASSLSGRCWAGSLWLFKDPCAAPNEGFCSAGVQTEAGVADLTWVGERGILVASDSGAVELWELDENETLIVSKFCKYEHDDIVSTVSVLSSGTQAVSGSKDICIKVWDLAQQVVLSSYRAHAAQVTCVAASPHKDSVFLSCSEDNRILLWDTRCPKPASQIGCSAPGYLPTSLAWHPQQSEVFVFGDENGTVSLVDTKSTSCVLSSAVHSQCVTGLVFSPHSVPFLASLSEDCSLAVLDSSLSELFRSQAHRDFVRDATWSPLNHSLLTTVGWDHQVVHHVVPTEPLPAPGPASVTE
Assay: Enzymatic inhibitory activity against PRMT5-MTA (AlphaScreen)
Type: biochemical
Settings: read-out: IC50
assayMetric: pIC50
# pIC50 = -log10(concentration in molar units)

Please review the entries below; each comes with its answer.
molecule | pIC50
Cc1cc2cc(C(=O)N(Cc3ccc(-c4cscn4)cn3)N(C)c3ncccn3)ccc2nc1N | 8.64
Cc1cc2nc(N)c3cnn(C)c3c2cc1C(=O)N1CCC(C)N1c1ncccn1 (stereo not shown) | 8.09
Cc1cc2cc(C(=O)N(Cc3ccc(C(F)(F)F)cn3)N(C)c3ncccn3)ccc2nc1N | 9.00
Cc1cc2nc(N)c3cnn(C)c3c2cc1C(=O)N1CC(C)CN1c1cccc(Cl)n1 (stereo not shown) | 8.42
Cc1cc2nc(N)c3cnn(C)c3c2cc1C(=O)N1CC(C)CN1c1cccc(C#N)n1 (stereo not shown) | 8.49

q: Could you tell me which pIC50 is on file for Cc1cc2cc(C(=O)N(Cc3ccc(-c4cnn(C(F)(F)F)c4)cn3)Nc3ncccn3)ccc2nc1N ?
a: 7.40

q: What measured pIC50 goes with Cc1cc2cc(C(=O)N(Cc3ccc(C(C)O)cn3)N(C)c3ncccn3)ccc2nc1N (stereo not shown) ?
a: 8.70

q: Need pIC50, item Cc1cc2nc(N)c3c(c2cc1C(=O)N1CC(C)CN1c1ncccc1F)COC3 (stereo not shown)
a: 8.30

q: Fill in the blank: the reported pIC50 of Cc1cc2cc(C(=O)N(Cc3ccc(C4CCC4)cn3)N(C)c3ncccn3)ccc2nc1N is ____.
a: 9.05

q: // lookup pIC50 for Cc1cc2cc(C(=O)N(Cc3ccc(C(F)(F)F)cn3)Nc3ncccn3)ccc2nc1N
a: 8.70

q: Name the recorded pIC50 for Cn1ncc2c(N)nc3cc(Cl)c(C(=O)N4CC(OCC(F)(F)F)CN4c4ncccc4F)cc3c21 (stereo not shown) .
a: 8.15

q: Could you tell me which pIC50 is on file for Cc1cc2cc(C(=O)N(Cc3ccc(-c4cncs4)cn3)N(C)c3nccc4nccnc34)ccc2nc1N ?
a: 8.41

q: pIC50 lookup needed for Cc1cc2cc(C(=O)N(Cc3ccc(C(F)(F)F)cn3)N(C)c3nccc4c3ncn4C)ccc2nc1N , thanks.
a: 8.70

###

Documented pIC50 across a set of molecules
Target: PRMT5-MTA (Homo sapiens)
Assay: Enzymatic inhibitory activity against PRMT5-MTA (AlphaScreen)
Type: biochemical
Conditions: read-out: IC50
Give only the number. pIC50 is defined as minus log10 of concentration in molar units.

molecule | pIC50
Cc1cc2cc(C(=O)N(Cc3ccc(C4=CCOCC4)cn3)N(C)c3ncccn3)ccc2nc1N | 8.48
CC1CN(C(=O)c2cc3c4c(c(N)nc3cn2)COC4)N(c2ncccc2F)C1 (centres unmarked) | 8.21
[2H]C([2H])([2H])n1ncc2c(N)nc3cc(C)c(C(=O)N4CC(C)CN4c4ncccc4F)cc3c21 (centres unmarked) | 7.99
[2H]C([2H])([2H])c1cc2cc(C(=O)N(Cc3ccc(-c4cncs4)cn3)N(C)c3ncccn3)ccc2nc1N | 8.20

q: Which pIC50 reading was recorded for the molecule Cc1cc2cc(C(=O)N(Cc3ccc(C(F)(F)F)cn3)N(C)c3c(F)cccc3F)ccc2nc1N ?
a: 8.33
